Experiment: binders from COS7 lysate, DM2A8 probe, primary screen, torsin A project, cell lysate, small-molecule microarray, fluorescence 635/667 (AID 1065)
Details: higher = more signal, COS7 lysate expressing mutant human TOR1A
Listing of entries alongside the reported composite z-score.
property name: composite z-score

| molecule | property name | quantitative readout |
| --- | --- | --- |
| CCOC(=O)C[C@H]1[C@H](OC(=O)Cc2ccc3c(c2)OCO3)[C@@H](NC(=O)c2ccccc2)c2cc(OCCCO)ccc2N1C(=O)c1ccccc1 | composite z-score | 0.122 |
| CCOC(=O)C1=CC[C@@H](c2ccccc2)N(S(=O)(=O)c2ccc(C)cc2)[C@H]1C=C(C)C | composite z-score | 0.644 |
| COc1ccc([Si](C)(C)[C@@H]2[C@@H](CC(=O)N(CCO)Cc3ccccc3)O[C@]3(C(=O)N(Cc4ccc(N5CCOC5=O)cc4)c4ccccc43)[C@H]2C)cc1 | composite z-score | 0.181 |
| CC(C)c1ccc(NN2C(C(O)c3cccs3)C=CC3C(=O)N(c4ccccc4)C(=O)C32)cc1 (centres undefined) | composite z-score | -0.14 |
